IC50 values for the compounds below.
- experimentDescription: Inhibition of TXB2 production in Sprague-Dawley rat whole blood
- Assay type: functional, tissue-based

compound: O=C(O)c1ccc(OCC(O)COc2ccc(SCCCCCc3ccccc3)cc2)cc1 (stereo not drawn)
result: > 100 µM
--
compound: O=C(O)c1ccc(OCCc2c(-c3ccccc3)n(C(c3ccccc3)c3ccccc3)c3ccc(Cl)cc23)cc1
result: > 50 µM
--
compound: Cc1c(CCNc2ccc(C(=O)O)cc2)c2cc(Cl)ccc2n1C(c1ccccc1)c1ccccc1
result: > 25 µM
--
compound: COC(=O)c1ccc(OCCc2c(C(C)(C)C)n(C(c3ccccc3)c3ccccc3)c3ccc(Cl)cc23)cc1
result: > 25 µM
--
compound: Cc1c(CCOc2ccc(C(=O)O)cc2)c2cc(N3CCOCC3)ccc2n1C(c1ccccc1)c1ccccc1
result: > 10 µM
--
compound: Cc1c(CCOc2ccc(C(=O)O)cc2)c2cc(Br)ccc2n1C(c1ccccc1)c1ccccc1
result: 3 µM
--
compound: Cc1c(CCOc2ccc(CC(=O)O)cc2)c2cc(Cl)ccc2n1C(c1ccccc1)c1ccccc1
result: 48 µM
--
compound: Cc1c(CCS(=O)(=O)CCc2ccc(C(=O)O)cc2)c2cc(Cl)ccc2n1C(c1ccccc1)c1ccccc1
result: 14 µM

Q. Give reported IC50 value for Cc1c(CCOc2cc(C(=O)O)on2)c2cc(Cl)ccc2n1C(c1ccccc1)c1ccccc1
A. > 50 µM

Q. Look up IC50 of COc1ccc2c(c1)c(CCS(=O)(=O)c1ccc(C(=O)O)cc1)c(C)n2C(c1ccccc1)c1ccccc1 and report it.
A. 7 µM

Q. Could you please provide reported IC50 for Cc1c(CC(=O)O)c2cc(Cl)ccc2n1C(c1ccccc1)c1ccccc1 ? Thanks!
A. < 100 µM

Q. In one line, give reported IC50 of the entry Cc1c(CCOc2cccc(C(=O)O)c2)c2cc(Cl)ccc2n1C(c1ccccc1)c1ccccc1 .
A. > 50 µM

Q. Output IC50 of Cc1c(CCOc2ccc(CCCC(=O)O)cc2)c2cc(Cl)ccc2n1C(c1ccccc1)c1ccccc1
A. 50 µM
